Values from patent US20250313563A1

- TARGET_OR_TEST_SYSTEM: UniProt:P49840
- ASSAY_NOTES: GSK3α TR-FRET kinase assay
- Type: biochemical
- STATED_CONDITIONS: 1 nM GSK3α, 4 μM ATP, 30 minute preincubation; geometric mean; read-out: GSK3-A TR-FRET BIOCHEMICAL (TR-FRET); GMean; IC50
pIC50: −log10 of the molar value.
READOUT_NAME: pIC50

Previously resolved entries follow.
CC[C@@]1(c2cccc(-c3ccnn3C)c2)C2=C(C[C@@](C)(COC)NC2=O)Nc2n[nH]cc21 : 5.30 to 6.00
CC[C@@]1(c2cccc(-c3cnn(C(C)(C)C)c3)c2)C2=C(CC(C)(C)NC2=O)Nc2n[nH]cc21 : < 5.30
CCC1(c2cccc(-c3ccncc3Cl)c2)C2=C(CC(C)(C)NC2=O)Nc2n[nH]cc21 (stereo not shown) [Compound 948142] : ≥ 7.00

**Q:** Given the entry CC[C@@]1(c2cccc(OC)c2)C2=C(CC(C)(C)CC2=O)Nc2n[nH]cc21 , report its measured pIC50.
**A:** 5.30 to 6.00

**Q:** Requested read-out: pIC50. Entry: CCC1(c2cccc(N3CCCCC3)c2)C2=C(CC(C)(C)NC2=O)Nc2n[nH]c(C(F)(F)F)c21 (stereo not shown)
**A:** ≥ 7.00

**Q:** For the compound CCC1(c2cccc(-c3ccnc4c3CCC4)c2)C2=C(CC(C)(C)NC2=O)Nc2n[nH]c(C(F)(F)F)c21 (stereo not shown) , what pIC50 is on record?
**A:** ≥ 7.00

**Q:** Requested field: pIC50. Item: CCC1(c2cccc(-c3ccnc(OC)c3F)c2)C2=C(CC(C)(C)NC2=O)Nc2n[nH]cc21 (stereo not shown)
**A:** 6.00 to 7.00

----------
- TARGET_OR_TEST_SYSTEM: GSK3b (GST-full length GSK3b) (Homo sapiens (Human), UniProt P49841)
- Sequence (P49841 whole entry): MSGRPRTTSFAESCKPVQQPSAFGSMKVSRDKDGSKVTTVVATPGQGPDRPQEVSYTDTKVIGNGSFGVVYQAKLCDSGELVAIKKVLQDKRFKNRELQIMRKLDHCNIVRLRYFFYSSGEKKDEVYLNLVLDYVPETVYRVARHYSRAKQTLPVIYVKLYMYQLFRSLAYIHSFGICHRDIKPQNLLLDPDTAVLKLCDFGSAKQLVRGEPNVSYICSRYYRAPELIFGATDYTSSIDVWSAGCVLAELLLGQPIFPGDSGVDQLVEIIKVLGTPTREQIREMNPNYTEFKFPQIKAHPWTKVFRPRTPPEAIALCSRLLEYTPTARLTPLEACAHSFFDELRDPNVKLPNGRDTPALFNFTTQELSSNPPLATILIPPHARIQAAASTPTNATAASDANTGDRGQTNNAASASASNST
- ASSAY_NOTES: GSK3b TR-FRET kinase assay
- Type: biochemical
- STATED_CONDITIONS: 1 nM GSK3b, 2 μM ATP, 30 minute preincubation, Table 16; read-out: GSK3-B TR-FRET BIOCHEMICAL (TR-FRET); IC50
pIC50: −log10 of the molar value.
Quick reference for pIC50 among some compounds

CCC1(c2cccc(-c3ccnc(C)c3F)c2)C2=C(CC(C)(C)CC2=O)Nc2n[nH]cc21 (centres unmarked) : 6.00 to 7.00

**Q:** Item CCC1(c2cccc(-c3ccncc3C)c2)C2=C(CC(C)(C)CC2=O)Nc2n[nH]cc21 (centres unmarked) has what recorded pIC50?
**A:** ≥ 7.00

**Q:** // returns reported pIC50 for input CCC1(c2cccc(-c3ccnc(C)c3)c2)C2=C(CC(C)(C)CC2=O)Nc2n[nH]c(C)c21 (centres unmarked) [Compound 883987]
**A:** 6.00 to 7.00

**Q:** May I ask what pIC50 has been recorded for CCC1(c2cccc(-c3cn(C)nc3C)c2)C2=C(CC(C)(C)NC2=O)Nc2n[nH]c(Cl)c21 (centres unmarked) ?
**A:** ≥ 7.00

**Q:** Fill in: pIC50 of CC[C@@]1(c2cccc(-c3ccnc(C)c3F)c2)C2=C(CC(C)(C)CC2=O)Nc2n[nH]c(C)c21 is ___
**A:** < 5.30

**Q:** Which pIC50 value belongs to CCC1(c2cccc(N(C)c3ccnc(OC)c3)c2)C2=C(CC(C)(C)CC2=O)Nc2n[nH]cc21 (centres unmarked) ?
**A:** 6.00 to 7.00

**Q:** Given the compound CCC1(c2cccc(C(F)(F)F)c2)C2=C(CCN(c3cnn(C)c3C)C2=O)Nc2n[nH]cc21 (centres unmarked) [Compound 950612] , what is its reported pIC50?
**A:** 5.30 to 6.00

**Q:** # get_value(readout='pIC50', item= CCC1(c2cccc(-c3ccnc(OC)c3)c2)C2=C(CC(C)(C)CC2=O)Nc2n[nH]cc21 (centres unmarked) [Compound 911989] )
**A:** < 5.30

**Q:** I have this compound here, CCC1(c2cccc(-c3ccnc(OC)c3)c2)C2=C(CC(C)(C)CC2=O)Nc2n[nH]c(C)c21 (centres unmarked) , and I need its recorded pIC50.
**A:** ≥ 7.00

**Q:** pIC50 lookup needed for C[C@@H]1CCC[C@]12C1=C(CC(C)(C)CC1=O)Nc1n[nH]cc12 , thanks.
**A:** 5.30 to 6.00

----------
// pIC50 lookup, one value per entry
- TARGET_OR_TEST_SYSTEM: GSK3α (GST-full length GSK3α) (Homo sapiens (Human), UniProt P49840)
- Sequence (P49840 whole entry): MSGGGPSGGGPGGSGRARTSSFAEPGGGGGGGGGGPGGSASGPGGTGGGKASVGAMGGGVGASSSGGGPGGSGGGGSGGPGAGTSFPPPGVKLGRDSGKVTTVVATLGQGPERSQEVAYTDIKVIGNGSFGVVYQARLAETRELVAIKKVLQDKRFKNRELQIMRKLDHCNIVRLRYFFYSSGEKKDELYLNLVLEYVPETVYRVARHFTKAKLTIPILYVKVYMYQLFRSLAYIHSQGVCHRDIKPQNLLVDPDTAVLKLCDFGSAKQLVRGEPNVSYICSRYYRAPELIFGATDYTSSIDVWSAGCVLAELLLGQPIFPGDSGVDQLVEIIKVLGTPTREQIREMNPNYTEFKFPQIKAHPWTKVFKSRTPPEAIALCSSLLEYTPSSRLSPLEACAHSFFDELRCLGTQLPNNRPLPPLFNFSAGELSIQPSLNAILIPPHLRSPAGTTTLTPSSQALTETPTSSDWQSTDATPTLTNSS
- ASSAY_NOTES: GSK3α TR-FRET kinase assay
- Type: biochemical
- STATED_CONDITIONS: 1 nM GSK3α, 4 μM ATP, 30 minute preincubation, Table 16; read-out: GSK3-A TR-FRET BIOCHEMICAL (TR-FRET); IC50
pIC50: −log10 of the molar value.

Recorded results for 5 molecules are shown here.
CCC1(c2cccc(N(C)c3ccc(OC)nc3)c2)C2=C(CC(C)(C)CC2=O)Nc2n[nH]cc21 (stereo not drawn) : 6.00 to 7.00
CC1(C)CC(=O)C2=C(C1)Nc1n[nH]cc1C21CCCCC1=O (stereo not drawn) : < 5.30
CC[C@@]1(c2cccc(-c3ccncc3C(F)(F)F)c2)C2=C(CC(C)(C)C2=O)Nc2n[nH]cc21 : ≥ 7.00
CC[C@@]1(c2cccc(Oc3ncccn3)c2)C2=C(CC(C)(C)NC2=O)Nc2n[nH]cc21 : < 5.30
CCC1(c2cccc(N3CCCCCC3)c2)C2=C(CC(C)(C)CC2=O)Nc2n[nH]cc21 (stereo not drawn) : 6.00 to 7.00

**Q:** Quick check: pIC50 of CCC1(c2cccc(N3CCCC3)c2)C2=C(CC(C)(C)CC2=O)Nc2n[nH]c(C)c21 (stereo not drawn) ?
**A:** ≥ 7.00

**Q:** # query: pIC50 of entry CCC1(c2cccc(C3CCOC3)c2)C2=C(CC(C)(C)CC2=O)Nc2n[nH]cc21 (stereo not drawn)
**A:** 6.00 to 7.00

----------
Reported pIC50 values for a set of compounds
- TARGET_OR_TEST_SYSTEM: GSK3α (GST-full length GSK3α) (Homo sapiens (Human))
- ASSAY_NOTES: GSK3α TR-FRET kinase assay
- Type: biochemical
- STATED_CONDITIONS: read-out: GSK3-A (TR-FRET 1 mM ATP); GMean; IC50; 1 mM ATP; geometric mean
pIC50: −log10 of the molar value.

CCC1(c2cccc(-c3cnn(C)c3)c2)C2=C(CC(C)CC2=O)Nc2n[nH]cc21 (stereo not drawn) : 6.00 to 7.00
COc1cncc(F)c1-c1cccc([C@@]2(C)C3=C(CC(C)(C)CC3=O)Nc3n[nH]c(CC(C)(C)C)c32)c1 : < 5.30
CN1CC2(C3=C(CC(C)(C)CC3=O)Nc3n[nH]c(C4CC(F)(F)C4)c32)c2ccccc21 (stereo not drawn) [Compound 119048] : 5.30 to 6.00

**Q:** I would be grateful if you could share the reported pIC50 for CC[C@]1(c2cccc(-c3cnn4ccncc34)c2)C2=C(CC(C)(C)NC2=O)Nc2n[nH]cc21 .
**A:** 5.30 to 6.00

**Q:** pIC50 for CC[C@]1(c2cccc(S(=O)(=O)CC3CC3)c2)C2=C(CC(C)(C)NC2=O)Nc2n[nH]c(C(F)(F)F)c21 ?
**A:** ≥ 7.00

**Q:** Please report the recorded pIC50 for CCC1(c2cccc(C(C)C)c2)C2=C(CC(C)(C)NC2=O)Nc2n[nH]cc21 (stereo not drawn) .
**A:** 6.00 to 7.00

**Q:** Any idea what its pIC50 is? The compound is CCC1(c2cccc(Cl)c2)C2=C(CC(C)(C)CC2=O)Nc2n[nH]c(Br)c21 (stereo not drawn)
**A:** ≥ 7.00

**Q:** Form field: reported pIC50 of CC[C@@]1(c2cccc(-c3cncn3C)c2)C2=C(CC(C)(C)CC2=O)Nc2n[nH]c(C)c21
**A:** ≥ 7.00

**Q:** Query (compound): CCC1(c2cccc(-c3cncn3C(C)C)c2)C2=C(CC(C)(C)CC2=O)Nc2n[nH]cc21 (stereo not drawn) ; field requested: pIC50
**A:** ≥ 7.00

**Q:** Find the recorded pIC50 belonging to CC(C)(C)Cc1[nH]nc2c1C1(COc3ccccc31)C1=C(CC(C)(C)CC1=O)N2 (stereo not drawn) and report it.
**A:** 5.30 to 6.00

**Q:** Look at this compound and give its reported pIC50. CC[C@]1(c2cccc(C3CC3)c2)C2=C(CC(C)(C)CC2=O)Nc2n[nH]cc21
**A:** 6.00 to 7.00

**Q:** Which pIC50 value belongs to CC[C@@]1(c2cccc(C(F)(F)F)c2)C2=C(Nc3n[nH]cc31)[C@H](C)CN(C)C2=O ?
**A:** 6.00 to 7.00

**Q:** pIC50 lookup needed for CCC1(c2cc(-c3ccncc3)ccc2C)C2=C(CC(C)(C)CC2=O)Nc2n[nH]cc21 (stereo not drawn) , thanks.
**A:** 6.00 to 7.00
